# experimental.protocol: yeast display, Sf9 membrane polyspecificity reagent, FACS + sequencing; frameworks hold sequencing errors

biosequence: QVQLQESGVGLVQASGSIFHEPNMGSYRQAPGKERELVAGISSGANTYYADSVKGRFTISRDNAKNTVYLQMNSLKPEDTAVYHCAVVVHLYTDLRYWGQDTQVTVSS
polyreactivity (PSR sort gate): high polyreactivity
//
biosequence: QFQLVESGGGLVQAGGSLRLSCAASGRIFCRYAMGWYRQAPGKETELVPVISARGARTYYEDSVKGRFTISRDNAKYTVYLQMNSLKPEDTAVYYCNKVGVLSGYYYPHASGDYWGQGTQVTVSS
polyreactivity (PSR sort gate): high polyreactivity
//
biosequence: QVQLVESGGGLVKAGGSLRLSCAASGSIYTNAMGWYRQAPGKERELVAAISWSGGRTYYADSVKGRFTISRDNAKNTVYLQINSLKPEDTAVYYCNPRGTRIASGHYYWGQGTLVTVSS
polyreactivity (PSR sort gate): high polyreactivity

----------
# experimental.protocol: yeast display, Sf9 membrane polyspecificity reagent, FACS + sequencing; frameworks hold sequencing errors
measured.quantity: polyreactivity (PSR sort gate)

// solved cases for polyreactivity (PSR sort gate) follow
biosequence: QVQLVESGGVLVQAGGSLRLSCAASGSLFSRYAMGWYRQAPGKERELVAAISSSGGSTYYADSVKGRFTISRDNAKNTVYLQMISLKREDTAVYDCGAELRYYLVWLYYWGQGTQVSVSS
measured.quantity: polyreactivity (PSR sort gate)
result: low polyreactivity

biosequence: QVQLVESGGGLVQAGGSLRLSCAASGRIFDPYAMGWYRQAPGKERELVATITRSGGSTYYADSVKGRFTISRDNAKNTVYLQMNSLKPEDTAVYYCAVGDGFEYDWGQGTQVTVSS
measured.quantity: polyreactivity (PSR sort gate)
result: low polyreactivity

biosequence: QVQLVESGGGLVQAGGSLRLSCAASGRIFGQYAMGWYRQAPGKEREFVAGISTTGGSTYYADSVKGRFTISRDNAKNTVYLQMNSLKPEDTAVYYCAVRINWSRWYHYYTYNYWGQGTQVTVSS
measured.quantity: polyreactivity (PSR sort gate)
result: high polyreactivity

biosequence: QVQLVESGGGLVQAGGSLRLSCAASGGIFIRYAMGWYRQAPGKEREFVAAIRWRGTNTYYADSVKGRFTISRDNAKNTVYLQMNSLKPEDTAVYYCAARPYYITRYKGMDYWGQGTQVTVSS
measured.quantity: polyreactivity (PSR sort gate)
result: high polyreactivity

I am curious: what polyreactivity (PSR sort gate) value has been reported for QVQLVESGGGLVQAGGSLRLICAASGSTRRYVMGWYRQAPGKERELVAVISRGGSTYYADSVKGRFTISRDNAKNTVYLQMNSLKPEDTAVYYCNVQPVIPRGGDYWGQGTQVTVSS ?
high polyreactivity

----------
# experimental.protocol: yeast display, Sf9 membrane polyspecificity reagent, FACS + sequencing; frameworks hold sequencing errors

biosequence: QVQLVESGGGLVQAGGSLRLSCAASGFTFRGYAMGWYRQAPGKERELVAAITSRGGTTYYADSVKGRFTISRDNAKNTVYLQMNSLKPEDTAVYYCATTGGYTRGIGWYNYWGQGTQVTVSS
polyreactivity (PSR sort gate): high polyreactivity

biosequence: QVQLVESGGGLVQAGGSLRLSCAASGSTYYTYAMGWYRQAPGKERELVAAIRGRGGRTYYADSVKGRFTISRDNAKNTVYLQMNSLKPEDTAVYYCNADGYAYYRATTRFDYWGQGTQVTVSS
polyreactivity (PSR sort gate): high polyreactivity
